biological target: Neu5Ac(a2-3)Gal(b1-3)GlcNAc6S; experiment: glycan array binding signal (z-score within array); higher = stronger binding; conditions: glycan notation: IUPAC condensed, linker removed
Many of the other results were omitted from the sample, so the strongest signals are more common in it than they were.
Readout Kind: glycan array binding signal (z-score)
No unit in the answer, only the number.

Entry GH98CBM51-1 (Streptococcus pneumoniae) (protein) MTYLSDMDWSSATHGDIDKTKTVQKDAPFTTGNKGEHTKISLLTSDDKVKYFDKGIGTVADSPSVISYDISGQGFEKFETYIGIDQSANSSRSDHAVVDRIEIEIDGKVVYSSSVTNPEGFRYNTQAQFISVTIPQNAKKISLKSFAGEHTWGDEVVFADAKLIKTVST , glycan array binding signal (z-score) reported as -0.196
